- System under test: Beta-3 Adrenergic Receptor (Homo sapiens (Human), UniProt P13945)
- Sequence (P13945 whole entry, species assumed): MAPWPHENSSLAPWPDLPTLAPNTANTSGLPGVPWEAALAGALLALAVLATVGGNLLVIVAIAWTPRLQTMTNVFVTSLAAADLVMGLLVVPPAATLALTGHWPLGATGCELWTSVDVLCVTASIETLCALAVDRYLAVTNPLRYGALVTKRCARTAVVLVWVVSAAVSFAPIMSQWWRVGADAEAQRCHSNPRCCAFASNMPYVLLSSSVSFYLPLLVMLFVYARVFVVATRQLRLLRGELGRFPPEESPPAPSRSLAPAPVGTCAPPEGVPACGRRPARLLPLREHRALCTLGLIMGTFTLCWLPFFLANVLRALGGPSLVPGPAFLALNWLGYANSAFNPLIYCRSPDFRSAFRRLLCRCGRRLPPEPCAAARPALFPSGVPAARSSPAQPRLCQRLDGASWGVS
- Assay overview: Homogeneous Time-Resolved Fluorescence (HTRF) cAMP antagonist assay, IC50 determination
- Reported conditions: CHO-K1 cells stably expressing recombinant receptor, isoproterenol at EC90
pIC50: −log10 of the molar value.
Entries and their pIC50 values follow.

Molecule	pIC50
CNS(=O)(=O)c1cccc(OC[C@@H](O)CN[C@H]2COC3(CCN(S(=O)(=O)c4c[nH]c5cccnc45)CC3)C2)c1	6.91
CNS(=O)(=O)c1cccc(OC[C@@H](O)CNC2COC3(CCN(S(=O)(=O)c4ccc5c(c4)OCCO5)CC3)C2)c1 (stereo partly drawn)	7.75
CC(C)NCc1ccc(-c2cccc(S(=O)(=O)N3CCC4(CC3)C[C@@H](NC[C@H](O)COc3cccc(S(N)(=O)=O)c3)CO4)c2)cc1	6.95
CNS(=O)(=O)c1cccc(OC[C@@H](O)CN[C@H]2COC3(CCN(S(=O)(=O)c4cc5nc[nH]c5nc4C)CC3)C2)c1	6.78
CNS(=O)(=O)c1cccc(OC[C@@H](O)CN[C@H]2COC3(CCN(c4nc(C)cc(C)n4)CC3)C2)c1	6.99
O=S(=O)(NCCF)c1cccc(OC[C@@H](O)CNC2COC3(CCN(S(=O)(=O)c4ccc5ccccc5c4)CC3)C2)c1 (stereo partly drawn)	7.77

Hey, just so you know, these numbers are from patent US11987588B2.
